Assay: Aqueous solubility, shake-flask method
Assay type: physicochemical
Details: pH 7.0 buffer, pH 7, aqueous buffer, thermodynamic from solid, shaking flask, buffered media at pH 7.0, mean of three
observed.property: solubility at 72 h

1. COc1ccc2nc(N(C=O)Cc3ccc4ccccc4c3)sc2c1 ... < 9 µg/mL
2. COc1ccc2nc(N(Cc3ccc4ccccc4c3)C(C)=O)sc2c1 ... < 9 µg/mL

Request: Item CCNC(=O)N(Cc1ccc2ccccc2c1)c1nc2ccc(OC)cc2s1 has what recorded solubility at 72 h?
Response: < 9 µg/mL
